Source of measurements: PubChem BioAssay (NCI)

Test system: A549 NSCLC
assay: NCI tumour cell line growth inhibition, 48 h; in the data active means GI50 below about 0.43 µM; inactive means the rest
Answer with one of the outcomes given here: T = active, F = inactive

COc1cc(C(=O)c2cnc(-c3c[nH]c4cccc(C)c34)[nH]2)cc(OC)c1OC	T
Clc1ccc2c(NCCNc3nc(N4CCOCC4)nc4ccccc34)ccnc2c1	F

Read the next record carefully.
Tell me the assay call for [Br][Pb]([c]1ccccc1)([c]1ccccc1)[c]1ccccc1 please.
T

###

System: HS 578T breast
assay: NCI tumour cell line growth inhibition, 48 h
property_name: TGI (µM)
Answer with a number only, understood to be in µM.

COc1cccc(C2CC(=O)Nc3c2c(C)nn3-c2nc3ccccc3[nH]2)c1OC (centres undefined)	47.5
O=C(O)CNc1ccc2c(c1)Cc1cc(Br)ccc1-2	36.4

What does the data say about its TGI? Entry: CCCCNc1ncnc2c1cnn2-c1ccccc1
58.2

What does the data say about its TGI? Entry: Cc1ccc(S(=O)(=O)OC[C@@]2(C)CC[C@]3(C)CC[C@]4(C)C(=C3C2)C=C[C@@H]2[C@@]3(C)CCCNC(C)(C)[C@@H]3CC[C@]24C)cc1
4.26
